molecular target: UniProt P80192; test: pIC50, kinobeads binding competition; settings: cell material: Lysate mix
Sequence (P80192 whole entry, looked up): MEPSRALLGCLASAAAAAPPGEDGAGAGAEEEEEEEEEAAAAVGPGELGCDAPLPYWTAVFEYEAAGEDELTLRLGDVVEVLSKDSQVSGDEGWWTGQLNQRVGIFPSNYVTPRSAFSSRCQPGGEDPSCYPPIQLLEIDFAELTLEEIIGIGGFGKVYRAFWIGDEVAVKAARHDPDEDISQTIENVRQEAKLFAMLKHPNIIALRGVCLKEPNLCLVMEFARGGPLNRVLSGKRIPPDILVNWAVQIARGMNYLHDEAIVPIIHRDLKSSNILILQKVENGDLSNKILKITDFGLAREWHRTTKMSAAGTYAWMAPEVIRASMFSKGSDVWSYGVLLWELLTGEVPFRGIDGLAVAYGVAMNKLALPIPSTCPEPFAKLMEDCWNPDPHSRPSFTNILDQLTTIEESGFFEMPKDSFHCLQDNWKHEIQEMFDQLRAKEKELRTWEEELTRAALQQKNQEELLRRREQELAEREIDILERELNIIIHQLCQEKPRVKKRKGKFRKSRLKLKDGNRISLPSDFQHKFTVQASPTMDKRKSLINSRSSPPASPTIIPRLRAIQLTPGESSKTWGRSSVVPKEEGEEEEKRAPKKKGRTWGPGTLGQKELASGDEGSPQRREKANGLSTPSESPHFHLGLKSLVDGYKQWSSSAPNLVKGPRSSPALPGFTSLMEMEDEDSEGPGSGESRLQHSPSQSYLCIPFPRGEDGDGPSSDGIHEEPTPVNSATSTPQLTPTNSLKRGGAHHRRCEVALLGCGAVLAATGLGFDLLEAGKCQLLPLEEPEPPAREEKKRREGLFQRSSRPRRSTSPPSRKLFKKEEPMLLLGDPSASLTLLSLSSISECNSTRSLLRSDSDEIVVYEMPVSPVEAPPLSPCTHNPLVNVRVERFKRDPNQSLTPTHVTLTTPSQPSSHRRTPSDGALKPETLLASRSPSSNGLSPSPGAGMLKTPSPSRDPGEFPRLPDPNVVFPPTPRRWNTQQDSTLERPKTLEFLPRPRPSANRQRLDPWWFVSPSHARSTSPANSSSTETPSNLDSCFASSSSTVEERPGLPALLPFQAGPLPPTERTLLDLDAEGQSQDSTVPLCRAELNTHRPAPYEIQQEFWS
# pIC50 annotations
Lab note: write the figure by itself, no unit.

smiles_representation=C#CCNC(=O)c1cc(Nc2cc(C3CC3)[nH]n2)nc(N2CCN(Cc3ccc(S(=O)(=O)F)cc3)CC2)n1 experimental_endpoint=pIC50 reported_value=6.2

Please find the next molecule below.
Which pIC50 is listed for CCNC(=O)c1cc(Nc2cc(C3CC3)[nH]n2)nc(N2CCN(Cc3ccc(S(=O)(=O)F)cc3)CC2)n1 ?
5.78

====

biological target: UniProtKB Q9NWZ3; assay: pIC50, kinobeads binding competition; conditions: cell material: Lysate mix
Sequence (Q9NWZ3 whole entry): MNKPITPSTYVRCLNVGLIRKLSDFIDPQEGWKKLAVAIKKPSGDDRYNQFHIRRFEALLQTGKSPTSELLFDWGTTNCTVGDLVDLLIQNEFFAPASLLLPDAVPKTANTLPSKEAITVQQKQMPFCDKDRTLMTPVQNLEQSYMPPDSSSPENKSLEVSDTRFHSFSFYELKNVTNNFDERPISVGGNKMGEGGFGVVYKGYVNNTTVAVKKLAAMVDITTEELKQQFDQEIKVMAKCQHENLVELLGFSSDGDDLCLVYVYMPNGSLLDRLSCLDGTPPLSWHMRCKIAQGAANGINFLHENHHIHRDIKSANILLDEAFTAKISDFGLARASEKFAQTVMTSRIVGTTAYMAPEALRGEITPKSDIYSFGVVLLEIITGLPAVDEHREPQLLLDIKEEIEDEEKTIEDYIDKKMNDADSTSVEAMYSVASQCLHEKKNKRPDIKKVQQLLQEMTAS
# pIC50 annotations

Which pIC50 is listed for Cc1cc(Nc2cc(C(=O)NCCNC(=O)OC3CC/C=C/CCC3)nc(N3CCN(Cc4ccc(S(=O)(=O)F)cc4)CC3)n2)n[nH]1 (stereo unspecified) ?
< 4.52

Check C#CCNC(=O)c1cc(Nc2cc(C3CC3)[nH]n2)nc(N2CCN(Cc3ccc(S(=O)(=O)F)cc3)CC2)n1 too.
5.06

====

target: CAMKK1 (UniProt Q8N5S9); assay: pIC50, kinobeads binding competition; conditions: cell material: Lysate mix
Sequence (Q8N5S9 whole entry, looked up): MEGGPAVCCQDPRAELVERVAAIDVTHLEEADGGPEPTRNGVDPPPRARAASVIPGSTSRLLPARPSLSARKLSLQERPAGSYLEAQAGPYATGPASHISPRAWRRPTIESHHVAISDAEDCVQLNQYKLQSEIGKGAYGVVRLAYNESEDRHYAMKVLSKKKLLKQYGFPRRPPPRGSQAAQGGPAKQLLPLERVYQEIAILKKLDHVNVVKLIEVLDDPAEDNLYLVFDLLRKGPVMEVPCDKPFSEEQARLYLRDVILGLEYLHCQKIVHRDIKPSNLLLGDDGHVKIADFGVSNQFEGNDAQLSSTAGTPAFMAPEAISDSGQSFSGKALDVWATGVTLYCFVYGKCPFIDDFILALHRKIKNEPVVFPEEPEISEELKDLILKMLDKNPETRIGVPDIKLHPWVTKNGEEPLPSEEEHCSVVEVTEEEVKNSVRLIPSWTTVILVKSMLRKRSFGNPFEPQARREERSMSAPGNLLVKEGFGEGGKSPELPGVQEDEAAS
Experimental Endpoint: pIC50

molecule=C#CCNC(=O)c1cc(Nc2cc(C3CC3)[nH]n2)nc(N2CCN(Cc3ccc(S(=O)(=O)F)cc3)CC2)n1 experimental_endpoint=pIC50 reported_value=7.04
molecule="O=C(NCCNC(=O)c1cc(Nc2cc(C3CC3)[nH]n2)nc(N2CCN(Cc3ccc(S(=O)(=O)F)cc3)CC2)n1)OC1CC/C=C/CCC1 (stereo unspecified)" experimental_endpoint=pIC50 reported_value=6.42
molecule="Cc1cc(Nc2cc(C(=O)NCCNC(=O)OC3CC/C=C/CCC3)nc(N3CCN(Cc4ccc(S(=O)(=O)F)cc4)CC3)n2)n[nH]1 (stereo unspecified)" experimental_endpoint=pIC50 reported_value=5.96
molecule=CCNC(=O)c1cc(Nc2cc(C3CC3)[nH]n2)nc(N2CCN(Cc3ccc(S(=O)(=O)F)cc3)CC2)n1 experimental_endpoint=pIC50 reported_value=6.68
molecule=CCNC(=O)c1cc(Nc2cc(C)[nH]n2)nc(N2CCN(Cc3ccc(S(=O)(=O)F)cc3)CC2)n1 experimental_endpoint=pIC50 reported_value=5.97
molecule=C#CCNC(=O)c1cc(Nc2cc(C)[nH]n2)nc(N2CCN(Cc3ccc(S(=O)(=O)F)cc3)CC2)n1 experimental_endpoint=pIC50 reported_value=5.98

====

# pIC50 annotations
target: PHKG2 (UniProt P15735); assay: pIC50, kinobeads binding competition; details: cell material: Lysate mix
Sequence (P15735 whole entry): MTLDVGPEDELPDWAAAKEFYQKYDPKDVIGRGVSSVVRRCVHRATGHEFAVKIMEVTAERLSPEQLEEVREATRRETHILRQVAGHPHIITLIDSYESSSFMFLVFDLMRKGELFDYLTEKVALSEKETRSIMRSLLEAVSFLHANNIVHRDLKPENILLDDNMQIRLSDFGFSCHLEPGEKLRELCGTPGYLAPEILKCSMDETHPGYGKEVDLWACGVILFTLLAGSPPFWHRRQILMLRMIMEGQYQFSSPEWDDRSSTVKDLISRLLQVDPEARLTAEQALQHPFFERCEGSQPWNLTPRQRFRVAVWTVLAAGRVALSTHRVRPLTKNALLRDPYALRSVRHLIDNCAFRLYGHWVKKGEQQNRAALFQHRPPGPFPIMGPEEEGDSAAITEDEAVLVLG

compound=CCNC(=O)c1cc(Nc2cc(C3CC3)[nH]n2)nc(N2CCN(Cc3ccc(S(=O)(=O)F)cc3)CC2)n1 experimental_endpoint=pIC50 reported_value="< 4.52"

Which pIC50 is listed for Cc1cc(Nc2cc(C(=O)NCCNC(=O)OC3CC/C=C/CCC3)nc(N3CCN(Cc4ccc(S(=O)(=O)F)cc4)CC3)n2)n[nH]1 (stereo unspecified) ?
< 4.52

Check O=C(NCCNC(=O)c1cc(Nc2cc(C3CC3)[nH]n2)nc(N2CCN(Cc3ccc(S(=O)(=O)F)cc3)CC2)n1)OC1CC/C=C/CCC1 (stereo unspecified) too.
< 4.52

Check C#CCNC(=O)c1cc(Nc2cc(C3CC3)[nH]n2)nc(N2CCN(Cc3ccc(S(=O)(=O)F)cc3)CC2)n1 too.
< 4.52

Check C#CCNC(=O)c1cc(Nc2cc(C)[nH]n2)nc(N2CCN(Cc3ccc(S(=O)(=O)F)cc3)CC2)n1 too.
< 4.52

Check CCNC(=O)c1cc(Nc2cc(C)[nH]n2)nc(N2CCN(Cc3ccc(S(=O)(=O)F)cc3)CC2)n1 too.
< 4.52
